List of Cmax values.
# experimentalProtocol: in vivo pharmacokinetic study in SD rats
# conditionSummary: rat, in vivo, 1 mg/kg, PO
Express your answer in ng/mL, writing the number without its unit.

Please review the following examples before continuing.
[[record]]
compound = "CN(C)C(=O)c1nccc(Nc2c(NC(C#CC3CCC3)C3(C)CC(F)(F)CO3)c(=O)c2=O)c1O (stereo not drawn)"
parametermeasured = "Cmax"
numericreadout = 268

[[record]]
compound = "Cc1cccnc1C(Nc1c(Nc2ccnc(C(=O)N(C)C)c2O)c(=O)c1=O)C1(C)CCC(F)(F)C1 (single isomer, unassigned) [125B]"
parametermeasured = "Cmax"
numericreadout = 822


Next:
Ask: Tell me the measured Cmax of CN(C)C(=O)c1nccc(Nc2c(NC(c3nc(C(F)(F)F)ccc3F)C3(C)CC(F)(F)CO3)c(=O)c2=O)c1O (stereo not drawn) , please.
Reply: 102
